Would you mind telling me the reported pKi of each entry?
# Assay Target: Sushi domains (SD1/2) protein
# Procedure Details: Fluorescence polarization (FP) competition assay with AJAP-1probe, calculated Ki
# Type: binding
# Condition Summary: purified peptides; read-out: Ki
Residues, ends and D or L forms follow the SMILES beside them. *: point of attachment. Bn = c1ccc(C*)cc1
Expect pKi as a plain number equal to -log10 of the molar concentration.

-- ask I'd like to know its pKi. The compound in question is CC(=O)N[C@@H](CCC(=O)O)C(=O)N[C@@H](CC(=O)O)C(=O)N[C@@H](CC(=O)O)C(=O)N[C@@H](CO)C(=O)N[C@@H](CC(=O)O)C(=O)N[C@H](C(=O)N[C@@H](Cc1c[nH]c2ccccc12)C(=O)N[C@@H](Cc1c[nH]c2ccccc12)C(=O)NCC(=O)NCC(=O)N[C@@H](C)C(=O)N[C@@H](CC(=O)O)C(=O)N[C@H](C(=O)N[C@@H](CC(=O)O)C(N)=O)[C@@H](C)O)C(C)C [APPWT] (Ac-EDDSDVWWGGADTD-NH2)
-- reply 6.25

-- ask I'd like to know its pKi. The compound in question is CC(=O)N[C@@H](CCC(=O)O)C(=O)N[C@@H](CC(=O)O)C(=O)N[C@@H](CC(=O)O)C(=O)N[C@@H](CO)C(=O)N[C@@H](CC(=O)O)C(=O)N[C@H](C(=O)N[C@@H](Cc1c[nH]c2ccccc12)C(=O)N[C@@H](Cc1c[nH]c2ccccc12)C(=O)NCC(=O)NCC(=O)N[C@@H](C)C(=O)N[C@@H](CC(=O)O)C(=O)N[C@H](C(=O)N[C@@H](CC(=O)O)C(=O)N[C@@H](Cc1ccc(O)cc1)C(N)=O)[C@@H](C)O)C(C)C [Peptide 13] (Ac-EDDSDVWWGGADTDY-NH2)
-- reply 6.24

-- ask I'd like to know its pKi. The compound in question is CC(=O)N[C@@H](CCC(=O)O)C(=O)N[C@@H](CC(=O)O)C(=O)N[C@@H](CC(=O)O)C(=O)N[C@@H](CO)C(=O)N[C@@H](Cc1c[nH]c2ccccc12)C(=O)N[C@H](C(=O)N[C@@H](Cc1c[nH]c2ccccc12)C(=O)N[C@@H](Cc1c[nH]c2ccccc12)C(=O)NCC(=O)NCC(=O)N[C@@H](C)C(=O)N[C@@H](CC(=O)O)C(=O)N[C@H](C(=O)N[C@@H](CC(=O)O)C(N)=O)[C@@H](C)O)C(C)C (Ac-EDDSWVWWGGADTD-NH2)
-- reply 7.00

-- ask I'd like to know its pKi. The compound in question is CC[C@H](C)[C@H](NC(=O)[C@H](Cc1ccccc1)NC(=O)[C@H](CCC(=O)O)NC(=O)[C@@H](NC(=O)[C@H](CCC(=O)O)NC(C)=O)[C@@H](C)O)C(=O)N[C@@H](C)C(=O)N[C@@H](Cc1c[nH]c2ccccc12)C(=O)NCC(=O)N1CCC[C@H]1C(=O)N[C@H](C(=O)NCC(=O)N[C@@H](CC(=O)O)C(=O)N[C@@H](CCC(=O)O)C(=O)N[C@@H](CC(=O)O)C(N)=O)[C@@H](C)O [AJAP-1WT, Ac-ETEFIAWGPTGDED-NH2] (Ac-ETEFIAWGPTGDED-NH2)
-- reply 7.51

-- ask I'd like to know its pKi. The compound in question is CC(=O)N[C@@H](CCC(=O)O)C(=O)N[C@@H](CC(=O)O)C(=O)N[C@@H](CC(=O)O)C(=O)N[C@@H](CO)C(=O)N[C@@H](Cc1ccc(OCc2ccccc2)cc1)C(=O)N[C@H](C(=O)N[C@@H](Cc1c[nH]c2ccccc12)C(=O)N[C@@H](Cc1c[nH]c2ccccc12)C(=O)NCC(=O)NCC(=O)N[C@@H](C)C(=O)N[C@@H](CC(=O)O)C(=O)N[C@H](C(=O)N[C@@H](CC(=O)O)C(N)=O)[C@@H](C)O)C(C)C (Ac-EDDSY(Bn)VWWGGADTD-NH2)
-- reply 7.57
